- Tested on: SISO (Cervical Carcinoma)
- assayText: combination Emax (second highest fraction inhibited in the dose matrix, 72 h); higher = more inhibition; extreme values may be limits of the assay
Could you label it True if measured combination Emax is 0.5 or higher, and False otherwise?

Please tell me: is the compound CC1(C)CCC(CN2CCN(c3ccc(C(=O)NS(=O)(=O)c4ccc(NCC5CCOCC5)c([N+](=O)[O-])c4)c(Oc4cnc5[nH]ccc5c4)c3)CC2)=C(c2ccc(Cl)cc2)C1 [Venetoclax] + C[C@@H]1COCCN1C2=NC(=NC(=C2)C3(CC3)[S@](=N)(=O)C)C4=C5C=CNC5=NC=C4 [AZD6738] (first compound max 1 µM, 7x7, partner max 10 µM) at or over 0.5 in terms of combination Emax?
True

Would you say Cn1cnc2c(F)c(Nc3ccc(Br)cc3Cl)c(C(=O)NOCCO)cc21 [Selumetinib] + C[C@@H]1COCCN1C2=NC(=NC(=C2)C3(CC3)[S@](=N)(=O)C)C4=C5C=CNC5=NC=C4 [AZD6738] (first compound max 10 µM, 7x7, partner max 10 µM) shows combination Emax at minimum 0.5?
False

Does the compound C[C@@H](c1ccc2nccn2c1)n1nnc2ncc(-c3cnn(C)c3)nc21 [Savolitinib] + Cc1c2c(nn1C)CSCc1cc(n(C)n1)CSc1cc(c3ccccc3c1)OCCCc1c(C(=O)O)n(C)c3c-2c(Cl)ccc13 [AZD5991] (first compound max 1 µM, 7x7, partner max 1 µM) have recorded combination Emax that is 0.5 or more?
False

Kindly determine if combination Emax recorded for CCN(CCO)CCCOc1ccc2c(Nc3cc(CC(=O)Nc4cccc(F)c4)[nH]n3)ncnc2c1 [AZD2811] + C[C@@H]1COCCN1C2=NC(=NC(=C2)C3(CC3)[S@](=N)(=O)C)C4=C5C=CNC5=NC=C4 [AZD6738] (first compound max 1 µM, 7x7, partner max 10 µM) is above or exactly 0.5.
True

Say whether CC1(C)CCC(CN2CCN(c3ccc(C(=O)NS(=O)(=O)c4ccc(NCC5CCOCC5)c([N+](=O)[O-])c4)c(Oc4cnc5[nH]ccc5c4)c3)CC2)=C(c2ccc(Cl)cc2)C1 [Venetoclax] + C1CN(CCC1(C(=O)N[C@@H](CCO)C2=CC=C(C=C2)Cl)N)C3=NC=NC4=C3C=CN4 [Capivasertib] (first compound max 1 µM, 7x7, partner max 3 µM) shows combination Emax of 0.5 or more.
False

Threshold query (combination Emax >= 0.5) on CCN(CCO)CCCOc1ccc2c(Nc3cc(CC(=O)Nc4cccc(F)c4)[nH]n3)ncnc2c1 [AZD2811] + C=CCn1c(=O)c2cnc(Nc3ccc(N4CCN(C)CC4)cc3)nc2n1-c1cccc(C(C)(C)O)n1 [AZD1775] (first compound max 1 µM, partner max 1 µM)
True
